# assay-remarks: Effect of concentration on the stability of the solution (purity over time)
# measurement-context: 1 wt % in 50% ethanol, 25° C.
property-measured: Purity (%) at hr 0
Quick reminder: number only, in %, skip the unit.

In [3]: df
Out[3]:
                                   molecule   val
0  CC(C)OC(=O)C(N)Cc1ccccc1 (centres unmarked) [Isopropyl 2-amino-3-phenylpropanoate, reference compound]  98.7
1  CCOC(=O)c1ccccc1 [Ethyl benzoate, reference compound]  98.0
2  CC(C)OC(=O)c1ccccc1 [Isopropyl benzoate, reference compound]  98.5

-- ask What does the record list as Purity (%) at hr 0 for CC(C)(C)OC(=O)C(N)Cc1ccccc1 (centres unmarked) [t-Butyl 2-amino-3-phenylpropanoate, reference compound] ?
-- reply 98.1

-- ask What does the record list as Purity (%) at hr 0 for CC(C)(C)OC(=O)c1ccccc1 [t-Butyl benzoate, reference compound] ?
-- reply 97.5

###

Purity at Day 21 values, listed per item
# assay-remarks: Effect of concentration on the stability of the solution (purity over time)
# measurement-context: 30 wt %; in water at 25° C.
Quick reminder: number only, in %, skip the unit.

Use these answered entries as a reference point.
>>> print(df.to_string())
                                   compound  property_measured   val
0  CCN(CC)CCOC(=O)C(C)c1ccc2oc(-c3ccc(Cl)cc3)nc2c1.Cl (stereo not shown)   Purity at Day 21  97.7
1  CCN(CC)CCOC(=O)CCc1nc(-c2ccccc2)c(-c2ccccc2)o1.Cl   Purity at Day 21  97.9
2    CCN(CC)CCOC(=O)CCc1ccc2cc(OC)ccc2c1.Cl   Purity at Day 21  98.1
3  CCN(CC)CCOC(=O)CC1=C(C)C(=Cc2ccc([S+](C)[O-])cc2)c2ccc(F)cc21.Cl (stereo not shown)   Purity at Day 21  97.0
4  CCN(CC)CCOC(=O)Cc1sc(-c2ccccc2)nc1-c1ccc(Cl)cc1.Cl   Purity at Day 21  98.0
5  CCN(CC)CCOC(=O)Cc1ccc(C(=O)c2ccc(C)cc2)n1C.Cl   Purity at Day 21  97.0

Now consider a different compound.
-- ask What does the record list as Purity at Day 21 for CCN(CC)CCOC(=O)Cc1c(C)n(C(=O)c2ccc(Cl)cc2)c2ccc(OC)cc12.Cl ?
-- reply 98.1

###

# assay-remarks: Effect of concentration on the stability of the solution (purity over time)
# measurement-context: 3 wt %; in water at 25° C.
property-measured: Purity at Day 28 (%)
Quick reminder: number only, in %, skip the unit.

Use these answered entries as a reference point.
                                   compound   val
0  CCN(CC)CCOC(=O)Cc1sc(-c2ccccc2)nc1-c1ccc(Cl)cc1.Cl  92.7
1    CCN(CC)CCOC(=O)CCc1ccc2cc(OC)ccc2c1.Cl  93.8
2  CCN(CC)CCOC(=O)Cc1ccc(C(=O)c2ccc(C)cc2)n1C.Cl  92.7
3  CCN(CC)CCOC(=O)[C@H](C)c1ccc2cc(OC)ccc2c1.Cl (racemic)  97.1

Now consider a different compound.
-- ask What does the record list as Purity at Day 28 for CCN(CC)CCOC(=O)CCc1nc(-c2ccccc2)c(-c2ccccc2)o1.Cl ?
-- reply 85.7
